// provenance: the supplement of paper PMC10307832

Below, each entry is listed alongside its reported relative viability.
test system: LXF-289; assay: relative viability (nuclei count vs DMSO), 5 days (fraction); higher = more cells survive; conditions: first compound 0.08 µM
Lab note: record the figure alone, no unit after it.

Cc1cnc(-c2cnc(NCCNc3ccc(C#N)cn3)nc2-c2ccc(Cl)cc2Cl)[nH]1 + COc1cccc2cc(-c3nc([C@H]4CC[C@H](C(=O)O)CC4)n4ncnc(N)c34)[nH]c12 [OSI-027] (partner 0.5 µM) | 0.926
Cc1cnc(-c2cnc(NCCNc3ccc(C#N)cn3)nc2-c2ccc(Cl)cc2Cl)[nH]1 + Nc1ncn([C@H]2C[C@H](O)[C@@H](CO)O2)c(=O)n1 [Decitabine] (partner 2 µM) | 0.374
Cc1cnc(-c2cnc(NCCNc3ccc(C#N)cn3)nc2-c2ccc(Cl)cc2Cl)[nH]1 + CS(=O)(=O)CCNCc1ccc(-c2ccc3ncnc(Nc4ccc(OCc5cccc(F)c5)c(Cl)c4)c3c2)o1 [Lapatinib] (partner 2 µM) | 0.957

# return recorded relative viability for entry Cc1cnc(-c2cnc(NCCNc3ccc(C#N)cn3)nc2-c2ccc(Cl)cc2Cl)[nH]1 + CC(=O)Nc1cccc(-n2c(=O)n(C3CC3)c(=O)c3c(Nc4ccc(I)cc4F)n(C)c(=O)c(C)c32)c1 [Trametinib] (partner 0.02 µM) 0.704

# return recorded relative viability for entry O=c1[nH]c2ccccc2n1C1CCN(CCCC(c2ccc(F)cc2)c2ccc(F)cc2)CC1 [Pimozide] + Cc1nc(Nc2ncc(C(=O)Nc3c(C)cccc3Cl)s2)cc(N2CCN(CCO)CC2)n1 [Dasatinib] (partner 0.075 µM) 0.236
